# target of assay: UniProt:Q92772
# Sequence (Q92772 whole entry, looked up): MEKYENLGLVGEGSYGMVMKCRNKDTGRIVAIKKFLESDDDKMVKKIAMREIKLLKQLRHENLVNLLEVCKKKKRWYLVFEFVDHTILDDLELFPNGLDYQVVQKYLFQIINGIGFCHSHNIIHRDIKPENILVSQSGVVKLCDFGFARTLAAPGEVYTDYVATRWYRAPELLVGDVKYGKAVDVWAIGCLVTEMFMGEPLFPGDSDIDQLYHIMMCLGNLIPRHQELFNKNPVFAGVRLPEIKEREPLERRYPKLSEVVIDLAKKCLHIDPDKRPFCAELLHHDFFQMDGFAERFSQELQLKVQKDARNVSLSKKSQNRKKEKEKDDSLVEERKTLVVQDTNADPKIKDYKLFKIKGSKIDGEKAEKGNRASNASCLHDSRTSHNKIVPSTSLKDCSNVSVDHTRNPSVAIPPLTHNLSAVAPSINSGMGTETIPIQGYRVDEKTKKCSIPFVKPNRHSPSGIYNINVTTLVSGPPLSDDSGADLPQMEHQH
# protocol notes: KINOMEscan competition binding
# condition context: compound 10.0 µM
Please respond with reported kinase still bound, per cent of control for every item in the list.
API: value field is a number in %; no unit string.

Request: Tell me the measured kinase still bound, per cent of control of O=C(Nc1cccc(Nc2ncc(Br)c(NCCc3cnc[nH]3)n2)c1)N1CCCC1 , please.
Result: 4.7

Request: Param item: O=c1cc(N2CCOCC2)oc2c(-c3cccc4c3sc3ccccc34)cccc12
Result: 96

Request: Param item: COc1cc2ncnc(-n3nc(-c4ccccn4)nc3N)c2cc1OC
Result: 2

Request: Param item: COc1cc(C(=O)N2CCC(N3CCN(C)CC3)CC2)ccc1Nc1ncc2c(n1)N(C)c1ccccc1C(=O)N2C
Result: 100

Request: Param item: CCN1CCN(C(=O)Cc2ccc(Nc3ncc(F)c(Nc4ccc(C(=O)Nc5ccccc5Cl)cc4)n3)cc2)CC1
Result: 24

====

Please respond with reported kinase still bound, per cent of control for every item in the list.
# target of assay: HIPK1 (human)
# protocol notes: KINOMEscan competition binding
# condition context: compound 10.0 µM
API: value field is a number in %; no unit string.

Request: Tell me the measured kinase still bound, per cent of control of CS(=O)(=O)N1CCN(Cc2cc3nc(-c4cccc5[nH]ncc45)nc(N4CCOCC4)c3s2)CC1 , please.
Result: 100

Request: Param item: CN(C)C/C=C/C(=O)Nc1ccc(C(=O)Nc2cccc(Nc3nccc(-c4cccnc4)n3)c2)cc1
Result: 6

Request: Param item: COc1cc(C(=O)N2CCC(N3CCN(C)CC3)CC2)ccc1Nc1ncc2c(n1)N(C)c1ccccc1C(=O)N2C
Result: 100

Request: Param item: COc1ccc(N(C(=O)Oc2c(C)cccc2C)c2ccnc(Nc3ccc(N4CCN(C)CC4)cc3)n2)c(OC)c1
Result: 100

Request: Param item: CCN(CC)CCCCNc1ncc2c(n1)N(C)C(=O)N(c1c(Cl)c(OC)cc(OC)c1Cl)C2
Result: 100

Request: Param item: O=C1NC(=O)/C(=C/c2ccc3nccc(-c4ccncc4)c3c2)S1
Result: 6.9

Request: Param item: C=CC(=O)Nc1ccc(CN(C(=O)Nc2c(Cl)c(OC)cc(OC)c2Cl)c2cc(Nc3ccc(N4CCN(C)CC4)cc3)ncn2)cc1
Result: 100

Request: Param item: C[C@@H](Oc1cc(-c2cnn(C3CCNCC3)c2)cnc1N)c1c(Cl)ccc(F)c1Cl
Result: 78

Request: Param item: COc1cc2ncn(-c3cc(OCc4ccccc4C(F)(F)F)c(C(N)=O)s3)c2cc1OC
Result: 84

Request: Param item: COCC(=O)NC/C=C/c1ccc2ncnc(Nc3ccc(Oc4ccc(C)nc4)c(C)c3)c2c1
Result: 88

Request: Param item: NC(=O)Nc1cc(-c2cccc(F)c2)sc1C(=O)N[C@@H]1CCCNC1
Result: 7.2

Request: Param item: CNC(=O)c1cc(Oc2ccc(NC(=O)Nc3ccc(Cl)c(C(F)(F)F)c3)cc2)ccn1
Result: 13

Request: Param item: COc1cc2ncnc(-n3nc(-c4ccccn4)nc3N)c2cc1OC
Result: 0.55

Request: Param item: Cc1n[nH]c2ccc(-c3cncc(OC[C@@H](N)Cc4c[nH]c5ccccc45)c3)cc12
Result: 0.05

Request: Param item: CCN1CCN(C(=O)Cc2ccc(Nc3ncc(F)c(Nc4ccc(C(=O)Nc5ccccc5Cl)cc4)n3)cc2)CC1
Result: 3.2

Request: Param item: O=C(Nc1cccc(Nc2ncc(Br)c(NCCc3cnc[nH]3)n2)c1)N1CCCC1
Result: 1.2

Request: Param item: C=CC(=O)Nc1cc(-n2c(=O)ccc3cnc4ccc(-c5cn[nH]c5)cc4c32)ccc1C
Result: 52

Request: Param item: CNC(=O)c1ccc(Nc2cc(Nc3ccccc3S(=O)(=O)C(C)C)c3cc[nH]c3n2)nc1
Result: 100

Request: Param item: N#CCNC(=O)c1ccc(-c2ccnc(Nc3ccc(N4CCOCC4)cc3)n2)cc1
Result: 8.9

Request: Param item: COc1cc(N2CCN(C)CC2)ccc1Nc1ncc2c(n1)N(C)c1ccccc1C(=O)N2C
Result: 100

Request: Param item: O=c1cc(N2CCOCC2)oc2c(-c3cccc4c3sc3ccccc34)cccc12
Result: 93
